Target: human V1b receptor (Homo sapiens, UniProt P47901)
Sequence (P47901 1-424): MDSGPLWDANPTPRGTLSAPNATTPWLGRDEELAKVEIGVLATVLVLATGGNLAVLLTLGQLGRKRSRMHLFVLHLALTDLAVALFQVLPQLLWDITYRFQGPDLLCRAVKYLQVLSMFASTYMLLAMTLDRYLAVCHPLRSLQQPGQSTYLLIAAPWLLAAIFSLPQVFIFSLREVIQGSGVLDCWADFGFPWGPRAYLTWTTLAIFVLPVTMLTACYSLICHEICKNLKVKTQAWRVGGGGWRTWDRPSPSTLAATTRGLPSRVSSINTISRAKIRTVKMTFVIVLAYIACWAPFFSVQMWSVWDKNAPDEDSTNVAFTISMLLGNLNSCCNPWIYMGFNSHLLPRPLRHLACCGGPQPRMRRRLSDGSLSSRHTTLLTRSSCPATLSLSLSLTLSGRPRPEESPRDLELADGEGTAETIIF
Assay: V1b binding assay (3H-AVP displacement, HEK-293 membranes)
Parameters: expressed in transfected cells; host or cells: HEK-293 (membranes)
Conditions: 1.0 μM compound; read-out: V1b@1.0, % Inh
Below, each entry is listed with its recorded inhibition at 1 µM.
Note: unit % is implicit; provide only the numeric part.

1. Cc1ccccc1CNC(=O)N1CCC(n2c(=O)n(CCCN3CCCCC3)c3ccccc32)CC1; 37
2. CCCN(CCC)CCCn1c(=O)n(C2CCN(C(=O)NC(c3ccccc3)c3ccccc3)CC2)c2ccccc21; 38
3. Cc1ccc2c(c1)n(CCCN1CCCCC1)c(=O)n2C1CCN(C(=O)NC(c2ccccc2)c2ccccc2)CC1; 33
4. Cc1ccccc1NC(=S)N1CCC(n2c(=O)n(CCCN3CCCCC3)c3ccccc32)CC1; 14
5. CCCNC(=S)N1CCC(n2c(=O)n(CCCN3CCCCC3)c3ccccc32)CC1; 31
6. O=c1n(CCCN2CCCCC2)c2ccccc2n1C1CCN(C(=S)NCc2ccccc2-c2ccccc2)CC1; 45

Task item: Return inhibition at 1 µM measured with human V1b receptor (Homo sapiens, UniProt P47901) given this molecule: COc1ccccc1CNC(=S)N1CCC(n2c(=O)n(CCCN3CCCCC3)c3ccccc32)CC1
Reply: 30

====

Item-by-item account of inhibition at 10 µM
molecular target: human V1b receptor (Homo sapiens, UniProt P47901); assay: V1b binding assay (3H-AVP displacement, HEK-293 membranes); set-up: expressed in transfected cells; host or cells: HEK-293 (membranes); conditions: 10 μM compound; read-out: V1b % Inh @10
The figure you give is taken to be in %; do not add the unit.

1) O=c1n(Cc2ccccc2)c2ccccc2n1C1CCN(C(=S)NC(c2ccccc2)c2ccccc2)CC1; 8
2) O=c1[nH]c2ccccc2n1C1CCN(C(=S)NCCCc2ccccc2)CC1; 0
3) COC(=O)C(Cc1ccccc1)NC(=S)N1CCC(n2c(=O)[nH]c3ccccc32)CC1 (centres unmarked); 11
4) COc1cccc(CNC(=S)N2CCC(n3c(=O)[nH]c4ccccc43)CC2)c1OC; 3
5) NC(=O)C(Cc1ccccc1)NC(=S)N1CCC(n2c(=O)[nH]c3ccccc32)CC1 (centres unmarked); 0

Task item: Which inhibition at 10 µM value is on record for COC(=O)[C@@H](Cc1ccccc1)NC(=S)N1CCC(n2c(=O)[nH]c3ccccc32)CC1 ?
Reply: 19

Task item: Reported inhibition at 10 µM, molecule CCN(CC)CCn1c(=O)n(C2CCN(C(=S)NC(Cc3ccccc3)C(=O)OC)CC2)c2ccccc21 (centres unmarked) : ____
Reply: 37

Task item: For the molecule shown here, O=c1[nH]c2ccccc2n1C1CCN(C(=S)NC(Cc2ccccc2)c2ccccc2)CC1 (centres unmarked) , give the reported inhibition at 10 µM.
Reply: 4

Data origin: patent US6653478B2
